Recorded values, source paper PMC10307063.

# system: Plasmodium falciparum plasmepsin V (PfPMV) (Plasmodium falciparum)
# Construct: gene PMV; Trx-PfPMVp37
# Sequence (Q8I6Z5 whole entry): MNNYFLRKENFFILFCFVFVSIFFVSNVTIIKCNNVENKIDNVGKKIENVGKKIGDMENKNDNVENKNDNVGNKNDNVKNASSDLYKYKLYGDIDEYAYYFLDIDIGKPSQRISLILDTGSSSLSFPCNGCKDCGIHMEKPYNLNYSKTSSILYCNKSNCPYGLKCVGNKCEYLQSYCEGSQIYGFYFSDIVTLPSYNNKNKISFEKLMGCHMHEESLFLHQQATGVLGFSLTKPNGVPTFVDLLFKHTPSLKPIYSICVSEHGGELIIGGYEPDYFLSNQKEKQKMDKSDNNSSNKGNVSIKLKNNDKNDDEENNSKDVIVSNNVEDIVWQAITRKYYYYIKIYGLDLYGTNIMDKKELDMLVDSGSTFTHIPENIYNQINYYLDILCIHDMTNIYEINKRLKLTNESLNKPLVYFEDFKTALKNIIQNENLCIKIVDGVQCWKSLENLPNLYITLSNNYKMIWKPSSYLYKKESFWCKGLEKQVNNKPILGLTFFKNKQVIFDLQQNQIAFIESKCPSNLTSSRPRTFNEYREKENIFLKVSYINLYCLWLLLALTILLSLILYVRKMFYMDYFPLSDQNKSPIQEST
# measurement-notes: casein proteolysis assay with recombinant enzyme (A280), Lineweaver-Burk kinetics
# Type: biochemical
pIC50: −log10 of the molar value.
endpoint: pIC50

compound	endpoint	quantitative-result
CC(C)=CC[C@@H](O)C1=CC(=O)c2c(O)ccc(O)c2C1=O [shikonin]	pIC50	4.36
O=c1c(O)c(-c2ccc(O)cc2)oc2cc(O)cc(O)c12 [kaempferol]	pIC50	4.65
O=c1c(O)c(-c2ccc(O)c(O)c2)oc2cc(O)cc(O)c12 [quercetin]	pIC50	4.27
